Target: T1, rat NPR-A (rat, UniProt P18910 29-1057)
T1 sequence (looked up): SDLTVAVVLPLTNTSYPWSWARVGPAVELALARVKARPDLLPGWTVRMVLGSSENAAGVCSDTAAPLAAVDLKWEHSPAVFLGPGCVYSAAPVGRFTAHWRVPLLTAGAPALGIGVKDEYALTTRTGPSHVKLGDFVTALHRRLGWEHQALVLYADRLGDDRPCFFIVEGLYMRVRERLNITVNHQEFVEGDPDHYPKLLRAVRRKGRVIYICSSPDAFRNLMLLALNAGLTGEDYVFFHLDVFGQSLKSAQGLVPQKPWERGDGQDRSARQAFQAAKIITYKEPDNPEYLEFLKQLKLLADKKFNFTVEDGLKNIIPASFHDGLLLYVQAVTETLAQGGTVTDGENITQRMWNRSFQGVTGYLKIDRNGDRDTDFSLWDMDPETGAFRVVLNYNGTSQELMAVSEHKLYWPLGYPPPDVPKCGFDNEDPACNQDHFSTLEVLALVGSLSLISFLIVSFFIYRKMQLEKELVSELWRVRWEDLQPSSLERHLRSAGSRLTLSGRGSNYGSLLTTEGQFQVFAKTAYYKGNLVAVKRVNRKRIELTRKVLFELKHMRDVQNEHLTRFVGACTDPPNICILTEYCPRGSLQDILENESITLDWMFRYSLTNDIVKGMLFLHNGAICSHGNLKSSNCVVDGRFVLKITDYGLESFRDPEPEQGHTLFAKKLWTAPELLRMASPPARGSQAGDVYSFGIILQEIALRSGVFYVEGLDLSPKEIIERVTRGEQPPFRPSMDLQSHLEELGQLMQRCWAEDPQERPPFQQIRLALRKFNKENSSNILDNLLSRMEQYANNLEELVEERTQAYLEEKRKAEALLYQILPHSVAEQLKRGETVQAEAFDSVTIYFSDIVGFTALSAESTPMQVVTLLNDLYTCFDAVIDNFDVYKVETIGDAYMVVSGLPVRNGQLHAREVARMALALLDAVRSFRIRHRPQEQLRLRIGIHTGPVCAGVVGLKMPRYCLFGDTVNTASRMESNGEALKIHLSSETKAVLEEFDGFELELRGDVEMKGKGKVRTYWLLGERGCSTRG
Assay: cell-based or functional assay
Positions of bridges follow the written chain, without caps; N, C: chain ends. No end group written: not given here.
Property label: NPR-A activation potency: Ratio compared wild type NPs

Binder: GLLISCFGRRIDRISHTSDIGCRH (disulfide 6-22) [^GRDK-Ring]
Experimental value: -4.8 ratio

Binder: GLLISCFGRRIDRISHTSGIGCRH (disulfide 6-22) [^GRGK-Ring]
Experimental value: -2.8 ratio

Binder: GLLISCFDRRIDRISHTSGIGCRH (disulfide 6-22) [^DRGK-Ring]
Experimental value: 2.8 ratio

Binder: GLLISCFDGRIDRISHTSDIGCRH (disulfide 6-22) [^DGDK-Ring]
Experimental value: 3.6 ratio

Binder: SLRRSSCFDRRMDRIGAQSDLGCNSFRY (disulfide 7-23 (inferred)) [^DRDANP]
Experimental value: 2.6 ratio

Binder: GLLISCFDRRIDRISHTSDIGCNSFRY (disulfide 6-22) [K-Ring^NSFRY]
Experimental value: -5.6 ratio

Binder: GLLISCFDRRIDRISHTSDIGCRH (disulfide 6-22) [K-Ring]
Experimental value: 1 ratio

Binder: SLRRSSCFDGRMDRIGAQSDLGCNSFRY (disulfide 7-23 (inferred)) [^DGDANP]
Experimental value: 7.8 ratio
